From: patent US12679839B2

Tested on: RNA polymerase II Serine 5 phosphorylation (Rpb1 CTD), downstream substrate of CDK7
procedure details: Imaging-based cellular RNA PolII Ser5 phosphorylation assay in A549 cells
Format: cell-based, human
conditions: Homo sapiens, A549, 3 h, challenged with compound for 3 hours, read-out: pRNA polII Ser5 (A549) pIC50 (converted)
measurement label: IC50

Below, each entry is followed by its recorded IC50 result.
compound: CO[C@H]1CC[C@H](Nc2ncc3c(n2)CN(C(=O)[C@H]2CCN(C)C[C@@H]2c2ccccc2)[C@H](C)C3)CC1
IC50: ~0.0339 µM
//
compound: C[C@@H]1Cc2cnc(NC[C@H]3CCOC3)nc2CN1C(=O)[C@H]1CCN(C)C[C@@H]1c1ccccc1
IC50: 0.575 µM
//
compound: C[C@@H]1Cc2cnc(NCc3ccccc3)nc2CN1C(=O)[C@@H]1CCN(C)C[C@H]1C(F)(F)F (relative stereo)
IC50: > 10 µM
//
compound: C[C@@H]1Cc2cnc(NCC3CCS(=O)(=O)C3)nc2CN1C(=O)[C@H]1CCN(C)C[C@@H]1c1ccccc1 (stereo partly drawn)
IC50: > 10 µM
//
compound: C[C@@H]1Cc2cnc(NC3CCOCC3)nc2CN1C(=O)[C@H]1CCN(C2COC2)C[C@@H]1c1ccccc1 (single isomer, unassigned)
IC50: > 10 µM

Kindly review the next compound as well.
Please report the measured IC50 for C[C@H](Nc1ncc2c(n1)CN(C(=O)[C@H]1CCN(C)C[C@@H]1c1ccccc1)[C@H](C)C2)c1ccn(C)n1 (single isomer, unassigned)
4.47 µM

###

experimental system: CDK7/Cyclin H/MAT-1 complex (Homo sapiens, UniProt P50613)
Construct: Human CDK7 (amino acids 1-346); His6 (N); TEV protease cleavage site (N); made in house; host or cells: baculovirus-SF9 insect cells
Sequence (P50613 whole entry, the tested form may be a part): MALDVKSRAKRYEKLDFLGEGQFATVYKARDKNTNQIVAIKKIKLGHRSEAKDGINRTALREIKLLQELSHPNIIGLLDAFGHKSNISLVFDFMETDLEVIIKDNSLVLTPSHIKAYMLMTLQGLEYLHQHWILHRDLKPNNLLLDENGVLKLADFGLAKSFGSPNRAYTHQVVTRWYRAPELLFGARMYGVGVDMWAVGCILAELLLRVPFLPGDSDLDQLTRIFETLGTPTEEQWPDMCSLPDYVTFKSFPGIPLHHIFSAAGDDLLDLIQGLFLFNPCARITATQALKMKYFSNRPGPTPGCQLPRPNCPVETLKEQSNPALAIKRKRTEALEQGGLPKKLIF
Sequence (P51946 whole entry partner, the tested form may be a part): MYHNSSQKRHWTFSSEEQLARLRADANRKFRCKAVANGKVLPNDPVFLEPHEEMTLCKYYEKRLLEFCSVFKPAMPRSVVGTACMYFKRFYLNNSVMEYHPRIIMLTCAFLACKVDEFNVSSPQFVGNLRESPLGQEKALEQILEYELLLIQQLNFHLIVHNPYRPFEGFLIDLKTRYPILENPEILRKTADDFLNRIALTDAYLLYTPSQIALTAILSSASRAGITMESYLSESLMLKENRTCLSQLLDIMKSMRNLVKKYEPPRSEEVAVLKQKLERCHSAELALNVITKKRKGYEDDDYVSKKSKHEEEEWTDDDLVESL
Sequence (P51948 whole entry partner, the tested form may be a part): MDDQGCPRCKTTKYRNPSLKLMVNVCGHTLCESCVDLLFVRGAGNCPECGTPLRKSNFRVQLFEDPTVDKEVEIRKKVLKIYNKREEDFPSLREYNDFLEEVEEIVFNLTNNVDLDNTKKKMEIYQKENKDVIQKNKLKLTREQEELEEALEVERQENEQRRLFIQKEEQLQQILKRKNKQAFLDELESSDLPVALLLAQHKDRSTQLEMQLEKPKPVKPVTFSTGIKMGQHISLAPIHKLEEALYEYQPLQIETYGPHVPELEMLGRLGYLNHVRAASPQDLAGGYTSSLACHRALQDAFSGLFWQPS
procedure details: Absorbance kinetic assay (20 nM CDK7/Cyclin H/MAT-1 complex)
Assay type: biochemical
Protocol: Human CDK7 (amino acids 1-346) containing an N-terminal His6-tag followed by a tobacco etch virus (TEV) protease cleavage site, human MAT1 (amino acids 1-309) and human cyclin H (amino acids 1-323) were co-expressed in the baculovirus-SF9 insect cell expression system to generate a trimeric complex. […] Absorbance Kinetic Assay (20 nM CDK7/Cyclin H/MAT-1 Complex) […] Absorbance at 340 nm was followed kinetically at an interval of 2 minutes for 8 hours. […]
Could you please report measured CDK7 (20 nM) pIC50 for the items listed next?
One number for each entry.

molecule: C[C@@H]1Cc2cnc(N[C@H](CO)c3ccccc3)nc2CN1C(=O)[C@H]1CCN(C)C[C@@H]1c1ccccc1
experimental system: CDK7/Cyclin H/MAT-1 complex (Homo sapiens, UniProt P50613)
measured result: 8.01
//
molecule: C[C@H](Nc1ncc2c(n1)CN(C(=O)[C@H]1CCN(C)C[C@@H]1c1ccccc1)[C@H](C)C2)c1ccccc1
experimental system: CDK7/Cyclin H/MAT-1 complex (Homo sapiens, UniProt P50613)
measured result: 7.97
//
molecule: C[C@@H]1Cc2cnc(NCc3ccccc3)nc2CN1C(=O)[C@H]1CCN(C)C[C@@H]1c1ccccc1
experimental system: CDK7/Cyclin H/MAT-1 complex (Homo sapiens, UniProt P50613)
measured result: 8.01
//
molecule: C[C@@H]1Cc2cnc(N[C@H](C)c3ccccn3)nc2CN1C(=O)[C@H]1CCN(C)C[C@@H]1c1ccccc1
experimental system: CDK7/Cyclin H/MAT-1 complex (Homo sapiens, UniProt P50613)
measured result: 7.97
//
molecule: CC(C)N1CC[C@@H](C(=O)N2Cc3nc(NC4CCOCC4)ncc3C[C@H]2C)[C@H](c2ccc(Cl)c(F)c2)C1 (single isomer, unassigned)
experimental system: CDK7/Cyclin H/MAT-1 complex (Homo sapiens, UniProt P50613)
measured result: 6.10
//
molecule: CN1CC[C@H](C(=O)N2Cc3nc(NCc4ccn(C)n4)ncc3CC2(C)C)[C@@H](c2ccccc2)C1 (single isomer, unassigned)
experimental system: CDK7/Cyclin H/MAT-1 complex (Homo sapiens, UniProt P50613)
measured result: 6.53
//
molecule: C[C@@H]1Cc2cnc(NC3CCN(CC(F)(F)F)CC3)nc2CN1C(=O)[C@H]1CCN(C)C[C@@H]1c1ccccc1
experimental system: CDK7/Cyclin H/MAT-1 complex (Homo sapiens, UniProt P50613)
measured result: 7.62
//
molecule: C[C@@H]1Cc2cnc(N[C@H]3CC[C@H](C)CC3)nc2CN1C(=O)[C@H]1CCN(C)C[C@@H]1c1ccccc1
experimental system: CDK7/Cyclin H/MAT-1 complex (Homo sapiens, UniProt P50613)
measured result: 8.01

Report CDK7 (20 nM) pIC50 for every entry below.
1. CO[C@H]1CC[C@H](Nc2ncc3c(n2)CN(C(=O)[C@H]2CCN(C)C[C@@H]2c2ccccc2)[C@H]2C[C@@H]32)CC1
2. C[C@@H]1Cc2cnc(NC3Cc4ccccc4C3)nc2CN1C(=O)[C@H]1CCN(C)C[C@@H]1c1ccccc1

1: 7.48; 2: 8.01

###

System: RNA polymerase II Serine 5 phosphorylation (Rpb1 CTD), downstream substrate of CDK7
procedure details: Imaging-based cellular RNA PolII Ser5 phosphorylation assay in A549 cells
Type: cell-based, human
conditions: Homo sapiens, A549, 3 h, challenged with compound for 3 hours, read-out: pRNA polII Ser5 (A549) pIC50 (converted)
Entry class follows IC50: group 1 (below 0.2 µM), group 2 (0.2 µM to below 1 µM), group 3 (1 µM or more)

Example results:
compound: Cc1ccc(CNc2ncc3c(n2)CN(C(=O)[C@H]2CCN(C)C[C@@H]2c2ccccc2)[C@H](C)C3)o1 [Compound 50]
experimental system: RNA polymerase II Serine 5 phosphorylation (Rpb1 CTD), downstream substrate of CDK7
qualitative label: group 1

compound: CO[C@H]1CC[C@H](Nc2ncc3c(n2)CN(C(=O)[C@H]2CCN(C)C[C@@H]2c2ccccc2)C(C)(C)C3)CC1 (single isomer, unassigned) [Compound 190]
experimental system: RNA polymerase II Serine 5 phosphorylation (Rpb1 CTD), downstream substrate of CDK7
qualitative label: group 2

compound: CN1CC[C@H](C(=O)N2Cc3nc(NCc4ccn(C)n4)ncc3[C@@H]3C[C@@H]32)[C@@H](c2ccccc2)C1 [Compound 198]
experimental system: RNA polymerase II Serine 5 phosphorylation (Rpb1 CTD), downstream substrate of CDK7
qualitative label: group 2

Categorize the following entry: C[C@@H]1Cc2cnc(N[C@H]3CCC(=O)N(C)C3)nc2CN1C(=O)[C@H]1CCN(C)C[C@@H]1c1ccccc1 (relative stereo) [Compound 7]
group 2

Hi, small favor: classify C[C@@H]1Cc2cnc(NCC(=O)N3CCCCC3)nc2CN1C(=O)[C@H]1CCN(C)C[C@@H]1c1ccccc1 [Compound 28] by its IC50 when you get a moment.
group 3

Please indicate the class for C[C@@H]1Cc2cnc(NC3CCS(=O)(=O)CC3)nc2CN1C(=O)[C@H]1CCN(C)C[C@@H]1c1ccccc1 [Compound 44] based on its IC50.
group 3

Bin? C[C@@H]1Cc2cnc(N[C@H]3CCOC4(CCC4)C3)nc2CN1C(=O)[C@H]1CCN(C)C[C@@H]1c1ccccc1 (relative stereo) [Compound 9]
group 2

Which bin, given its IC50, does C[C@@H]1Cc2cnc(N[C@@H](CO)c3ccccc3)nc2CN1C(=O)[C@H]1CCN(C)C[C@@H]1c1ccccc1 [Compound 71] occupy?
group 1

In plain terms, what class is C[C@@H]1Cc2cnc(NC3CCOCC3)nc2CN1C(=O)N1CCNC[C@@H]1c1ccccc1 [Compound 208] ?
group 3

Lab note: sort Cc1ccc(CNc2ncc3c(n2)CN(C(=O)[C@H]2CCN(C)C[C@@H]2c2ccccc2)[C@H](C)C3)cn1 [Compound 27] into the matching IC50 band.
group 3

Assign a category based on measured IC50 for C[C@@H]1Cc2cnc(NC3CCN(S(C)(=O)=O)CC3)nc2CN1C(=O)N1CCN(C)C[C@@H]1c1ccccc1 [Compound 209] and give only the class name.
group 2

Please classify: C[C@@H]1Cc2cnc(NC3CCOCC3)nc2CN1C(=O)[C@H]1CCN(C)C[C@@H]1C (relative stereo) [Compound 146]
group 2

Consider C[C@@H]1Cc2cnc(NCC3CCOCC3)nc2CN1C(=O)[C@H]1CCN(C)C[C@@H]1c1ccccc1 [Compound 36] . To which IC50 class does it belong?
group 3

Which bin should I file [2H]C([2H])([2H])N1CC[C@@H](C(=O)N2Cc3cc(NCc4ccn(C)n4)ncc3C[C@@H]2C)[C@H](c2ccccc2)C1 (single isomer, unassigned) [Compound 178] under?
group 3

Kindly identify the class of C[C@H]1Cc2cnc(NC3(c4ccccc4)COC3)cc2CN1C(=O)[C@H]1CCN(C)C[C@@H]1c1ccccc1 (single isomer, unassigned) [Compound 175] .
group 1

###

System: RNA polymerase II Serine 5 phosphorylation (Rpb1 CTD), downstream substrate of CDK7
procedure details: Imaging-based cellular RNA PolII Ser5 phosphorylation assay in A549 cells
Format: cell-based, human
conditions: Homo sapiens, A549, 3 h, challenged with compound for 3 hours, read-out: pRNA polII Ser5 (A549) pIC50 (converted)
Would you kindly list IC50 for each of these compounds?
Numbers only, in nM.

compound: Cc1nn(C)c(C)c1Nc1ncc2c(n1)CN(C(=O)[C@H]1CCN(C)C[C@@H]1c1ccccc1)[C@H](C)C2
IC50 / nM: 1350
//
compound: C[C@@H]1Cc2cnc(Nc3ccnc(C(F)F)c3)nc2CN1C(=O)[C@H]1CCN(C)C[C@@H]1c1ccccc1
IC50 / nM: 57.5
//
compound: Cc1cc(C2CN(C)CCC2C(=O)N2Cc3nc(NC4CCOCC4)ncc3C[C@H]2C)ccn1 (stereo partly shown)
IC50 / nM: 4470
//
compound: Cc1nn(C)cc1Nc1ncc2c(n1)CN(C(=O)[C@H]1CCN(C)C[C@@H]1c1ccccc1)[C@H](C)C2
IC50 / nM: 447
//
compound: C[C@@H]1Cc2cnc(NC3CCOCC3)nc2CN1C(=O)N1CCN(C)C[C@@H]1c1ccccc1 [Compound 204a]
IC50 / nM: 269

Turning now to a further record.
For the compound C[C@@H]1Cc2cnc(NCc3ccn(C)c3)nc2CN1C(=O)[C@H]1CCN(C)C[C@@H]1c1ccccc1 , give its measured IC50 value.
214
